assay: chemical genetic growth profiling, strain panel (AID 1159580);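 also: tested at 20 µM; growth read once vehicle control cultures reached saturation at 30 °C; 1 = growth at the plate median or of vehicle wells; lower values mean less growth of the strain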; settings: S. cerevisiae deletion strains, growth OD, locus YBR135W, strain CKS1, hits give low values
Screen size: about 5,500 compounds; about 2,000 (36%) were called active. Inconclusive results (about 18%) are left out. Some of the results follow.
Endpoint name: normalized growth
Provide a numeric answer; units are not to be included.

Field: example entries. Status: answers known.
[
  {
    "Compound": "O=S(=O)(Nc1ccc(Oc2ccc(OC(F)(F)F)cc2)cc1)c1cccc(Cl)c1",
    "Result": 0.978
  },
  {
    "Compound": "NNC(=O)c1csc(Cc2c(Cl)sc3ccc(Cl)cc23)n1",
    "Result": 1
  },
  {
    "Compound": "CC1C/C(=N/Nc2ccc(Br)cc2)c2cc(Cl)ccc2S1 (stereo not given)",
    "Result": 0.429
  }
]

Query string: Consider the compound C/C(=N/Nc1ccccc1)c1cc(Cl)cc(Cl)c1O and give its recorded normalized growth.
Result string: 0.954

Query string: For the compound CSC(=NNc1ccccc1)NC(=O)c1c(Cl)cccc1Cl , give its measured normalized growth value.
Result string: 0.967

Query string: # return recorded normalized growth for entry COc1ccc(C(=O)NCc2csc3ccc(Cl)cc23)cc1OC
Result string: 0.985

Query string: Give the value of normalized growth reported for the following: Cc1ccc(S(=O)(=O)Nc2ccc(Oc3ccc(F)cc3)cc2)cc1
Result string: 0.983

Query string: Give a short answer stating reported normalized growth for N#Cc1ccc(NC(=O)Nc2cccc3ccccc23)cc1 .
Result string: 0.96

Query string: Look up and state reported normalized growth for S=C(Nc1cc(Cl)c(Cl)cc1Cl)Nc1ccccc1Br
Result string: 0.964

Query string: Return the recorded normalized growth value; entry: O=C1CSC(c2ccc(C(F)(F)F)cc2)N1c1ccc(C(F)(F)F)cc1 (stereo not given)
Result string: 0.997

Query string: Determine from records and report normalized growth for COc1ccc(OC)c(-c2ccn[nH]2)c1OCc1ccccc1
Result string: 0.994

Query string: Specify measured normalized growth for O=C1/C(=C/c2cccs2)COc2ccccc21 .
Result string: 0.913

Query string: Please give the documented normalized growth of O=C(CCn1c(=O)oc2ccccc21)Sc1ccc(Cl)cc1Cl
Result string: 0.914

Query string: Give the reported value of normalized growth for this record: S=C(NNc1ccccc1)Nc1cc(Cl)ccc1Cl
Result string: 0.96

Query string: Please indicate normalized growth recorded for CS(=O)(=O)/C(C#N)=C/c1ccccc1OCc1c(Cl)cccc1Cl
Result string: 0.964

----------
experiment: chemical genetic growth profiling, strain panel (AID 1159580);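 also: tested at 20 µM; growth read once vehicle control cultures reached saturation at 30 °C; 1 = growth at the plate median or of vehicle wells; lower values mean less growth of the strain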; details: S. cerevisiae deletion strains, growth OD, locus YIL125W, strain kgd1, hits give low values
In all, about 5,500 compounds went through this assay and about 2,000 (36%) were called active. Inconclusive results (about 18%) are left out. The list shows a part of the results.
Endpoint name: normalized growth
// return a plain number; no unit text

[
  {
    "Compound": "CC(CCC(=O)O)[C@H]1CCC2C3CC[C@@H]4CCCC[C@]4(C)C3CC[C@@]21C (some centres not stated)",
    "normalized growth": 0.988
  },
  {
    "Compound": "c1ccc2c(c1)CN1CCCC1=N2",
    "normalized growth": 0.989
  },
  {
    "Compound": "Cc1nc2sccn2c(=O)c1CCN1CCC(=C(c2ccc(F)cc2)c2ccc(F)cc2)CC1",
    "normalized growth": 1
  },
  {
    "Compound": "C[C@H](N)[C@H](O)c1ccccc1",
    "normalized growth": 0.994
  },
  {
    "Compound": "O=C(O)c1ccccc1C(=O)Nc1ccc(S(=O)(=O)Nc2nccs2)cc1",
    "normalized growth": 0.991
  }
]

Query string: State its normalized growth for this compound: CCN(CCCc1ccccc1)CCCc1ccccc1
Result string: 1.03

----------
experiment: chemical genetic growth profiling, strain panel (AID 1159580);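 also: tested at 20 µM; growth read once vehicle control cultures reached saturation at 30 °C; 1 = growth at the plate median or of vehicle wells; lower values mean less growth of the strain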; conditions: S. cerevisiae deletion strains, growth OD, locus YLR102C, strain apc9, hits give low values
The campaign covered roughly 5,500 compounds. About 2,000 (36%) were called active. About 18% were inconclusive and are not listed. This is one part of the list.
Endpoint name: normalized growth
Lab note: record the figure alone, no unit after it.

Query string: Provide measured normalized growth value, entry: COc1c(Cl)ccc(Cl)c1C(=O)O
Result string: 1.01

Query string: Specify reported normalized growth for the molecule shown: COc1cc([C@H]2Oc3cc([C@H]4Oc5cc(O)cc(O)c5C(=O)[C@@H]4O)ccc3O[C@@H]2CO)ccc1O
Result string: 0.979

Query string: Give reported normalized growth value for COc1cc2c(cc1-c1cc3cc4ccoc4cc3oc1=O)OCO2
Result string: 0.997

----------
assay: chemical genetic growth profiling, strain panel (AID 1159580);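 also: tested at 20 µM; growth read once vehicle control cultures reached saturation at 30 °C; 1 = growth at the plate median or of vehicle wells; lower values mean less growth of the strain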; details: S. cerevisiae deletion strains, growth OD, locus YLR418C, strain cdc73, hits give low values
In all, about 5,500 compounds went through this assay and about 2,000 (36%) were called active. Roughly 18% stayed inconclusive and do not appear here. This is one part of the list.
Endpoint name: normalized growth
Please reply with the number alone, leaving off any unit.

[
  {
    "Compound": "COc1cc2c(cc1-c1cc3cc4ccoc4cc3oc1=O)OCO2",
    "Result": 0.915
  },
  {
    "Compound": "CCCC(C(=O)OCCN(CC)CC)(c1ccccc1)c1ccccc1",
    "Result": 0.883
  },
  {
    "Compound": "COc1cc([C@H]2Oc3cc([C@H]4Oc5cc(O)cc(O)c5C(=O)[C@@H]4O)ccc3O[C@@H]2CO)ccc1O",
    "Result": 0.978
  }
]

Query string: Answer with reported normalized growth of O=C(O)CCCOc1ccc(Cl)cc1Cl
Result string: 1.03

Query string: Give the reported value of normalized growth for this record: NNCCc1ccccc1
Result string: 0.965

Query string: Give the reported value of normalized growth for this record: CC(=O)Nc1nnc(S(N)(=O)=O)s1
Result string: 0.637

Query string: Respond only with normalized growth recorded for N#C/C(=C\c1cccc(O)c1)C(=O)O
Result string: 0.964

Query string: Name the recorded normalized growth of the compound listed here: Cc1cc(O)c(C)c2c1C(=O)Oc1c(C)c(O)c(C(=O)O)c(C)c1O2
Result string: 0.974

Query string: # return recorded normalized growth for input CCOC(=O)[C@H](CCc1ccccc1)N[C@@H](C)C(=O)N1Cc2ccccc2C[C@H]1C(=O)O
Result string: 1

Query string: Provide normalized growth value for the following compound: c1ccc2c(c1)CN1CCCC1=N2
Result string: 1

Query string: Dear colleague, please send me the reported normalized growth for CCCCSP(=O)(SCCCC)SCCCC when you can.
Result string: 1.02

Query string: Fill in normalized growth for record C[C@@H]1CC2C3C[C@H](F)C4=CC(=O)C=C[C@]4(C)[C@@]3(F)[C@@H](O)C[C@]2(C)[C@@]1(O)C(=O)COC(=O)C(C)(C)C (some centres undefined)
Result string: 1.03

Query string: Consider the compound C=C1C2CCC3(C)C(c4ccoc4)OC(=O)CC13OC1CC(OC(C)=O)C(C)(C)C(CC(=O)OC)C12C (centres undefined) and give its recorded normalized growth.
Result string: 0.983

Query string: Give the reported value of normalized growth for this record: O=c1[nH]cnc2[nH]ncc12
Result string: 1.01

Query string: Look up and state reported normalized growth for N[C@@H]1[C@@H](O)[C@H](O)[C@@H](CO)O[C@H]1O
Result string: 1.01

Query string: Give the value of normalized growth reported for the following: COc1cc(C(=O)O)c2c(c1C)OC(=O)c1c(C)cc(O)c(C=O)c1O2
Result string: 0.939

Query string: Report normalized growth for C=C1C(C2(C)C=CC(=O)C(C)(C)C2CC(=O)OC)CC[C@@]2(C)[C@H](c3ccoc3)OC(=O)C3OC132 (some centres undefined)
Result string: 0.994

Query string: Output measured normalized growth for this item: CC(CN(C)C)CN1c2ccccc2CCc2ccccc21 (centres undefined)
Result string: 1.02

Query string: Provide one value: measured normalized growth of CCCCCC1C(=O)CCC1CC(=O)OC (centres undefined)
Result string: 1.02

Query string: Provide one value: measured normalized growth of CCC(=O)c1ccc2c(c1)N(CC(C)N(C)C)c1ccccc1S2 (centres undefined)
Result string: 0.9

Query string: Name the recorded normalized growth of the compound listed here: O=C(O)Cc1cc(I)c(Oc2cc(I)c(O)c(I)c2)c(I)c1
Result string: 0.911

Query string: Please give the documented normalized growth of O=c1cc(-c2ccccc2)oc2cc(O)c(O)c(O)c12
Result string: 0.303

Query string: Tell me its normalized growth given CCCCC[C@H](CC(=O)NO)C(=O)N[C@H](C(=O)N1CCC[C@H]1CO)C(C)C as the entry.
Result string: 1.02

Query string: Indicate the recorded normalized growth value for this compound: CC1CCC2(OC1)OC1CC3C4CCC5C[C@@H](O)CCC5(C)C4=CCC3(C)C1[C@@H]2C (some centres undefined)
Result string: 0.977
